- System: virus-uninfected MT-4 cells
- Assay Remarks: Cytotoxicity Test I: virus-uninfected MT-4 cells, MTT method
- Type: cell-based
- Reported Conditions: conclusion drawn from Table 3
Where a SMILES comes first, the peptide text is derived from it. Bridges are numbered along the chain shown (N, C = ends). [ ]: non-standard residue; d: D form. 2Nal = N[C@@H](Cc1ccc2ccccc2c1)C(=O)O; Cit = NC(=O)NCCC[C@H](N)C(=O)O
Reported Metric: cytotoxicity in words, compared with conventional T134/T140

[
  {
    "Molecule": "N=C(N)NCCC[C@H](NC(=O)[C@@H]1CSSC[C@H](NC(=O)[C@H](Cc2ccc3ccccc3c2)NC(=O)[C@H](CCCNC(=N)N)NC(=O)[C@@H](N)CCCNC(N)=O)C(=O)N[C@@H](Cc2ccc(O)cc2)C(=O)N[C@@H](CCCNC(=N)N)C(=O)N[C@@H](CCCCN)C(=O)N[C@H](CCCNC(N)=O)C(=O)N2CCC[C@H]2C(=O)N[C@@H](Cc2ccc(O)cc2)C(=O)N[C@@H](CCCNC(=N)N)C(=O)N[C@@H](CCCNC(N)=O)C(=O)N1)C(N)=O [TC14018]",
    "Measured Value": "lowered cytotoxicity"
  },
  {
    "Molecule": "N=C(N)NCCC[C@H](NC(=O)[C@@H]1CSSC[C@H](NC(=O)[C@H](Cc2ccc3ccccc3c2)NC(=O)[C@H](CCCNC(=N)N)NC(=O)[C@@H](N)CCCNC(=N)N)C(=O)N[C@@H](Cc2ccc(O)cc2)C(=O)N[C@@H](CCCNC(N)=O)C(=O)N[C@@H](CCCCN)C(=O)N[C@H](CCCCN)C(=O)N2CCC[C@H]2C(=O)N[C@@H](Cc2ccc(O)cc2)C(=O)N[C@@H](CCCNC(=N)N)C(=O)N[C@@H](CCCNC(N)=O)C(=O)N1)C(N)=O [TN14003] (H-RR[2Nal]CY[Cit]K[dK]PYR[Cit]CR-NH2; disulfide 4-13 (inferred))",
    "Measured Value": "lowered cytotoxicity"
  },
  {
    "Molecule": "N=C(N)NCCC[C@H](NC(=O)[C@@H]1CSSC[C@H](NC(=O)[C@H](Cc2ccc3ccccc3c2)NC(=O)[C@H](CCCNC(=N)N)NC(=O)[C@@H](N)CCCNC(=N)N)C(=O)N[C@@H](Cc2ccc(O)cc2)C(=O)N[C@@H](CCCNC(N)=O)C(=O)N[C@@H](CCCCN)C(=O)N[C@H](CCCNC(N)=O)C(=O)N2CCC[C@H]2C(=O)N[C@@H](Cc2ccc(O)cc2)C(=O)N[C@@H](CCCNC(=N)N)C(=O)N[C@@H](CCCNC(N)=O)C(=O)N1)C(N)=O [TC14012]",
    "Measured Value": "lowered cytotoxicity"
  }
]
